target: RGD-affinity purified GPIIb/IIIa (Homo sapiens, UniProt P05106+P08514); test: In vitro solid phase purified GPIIb/IIIa binding assay (biotinylated fibrinogen); settings: fibrinogen binding to immobilized GPIIb/IIIa; read-out: IIb/IIIa IC50
Sequence (P08514 32-887 limits assumed): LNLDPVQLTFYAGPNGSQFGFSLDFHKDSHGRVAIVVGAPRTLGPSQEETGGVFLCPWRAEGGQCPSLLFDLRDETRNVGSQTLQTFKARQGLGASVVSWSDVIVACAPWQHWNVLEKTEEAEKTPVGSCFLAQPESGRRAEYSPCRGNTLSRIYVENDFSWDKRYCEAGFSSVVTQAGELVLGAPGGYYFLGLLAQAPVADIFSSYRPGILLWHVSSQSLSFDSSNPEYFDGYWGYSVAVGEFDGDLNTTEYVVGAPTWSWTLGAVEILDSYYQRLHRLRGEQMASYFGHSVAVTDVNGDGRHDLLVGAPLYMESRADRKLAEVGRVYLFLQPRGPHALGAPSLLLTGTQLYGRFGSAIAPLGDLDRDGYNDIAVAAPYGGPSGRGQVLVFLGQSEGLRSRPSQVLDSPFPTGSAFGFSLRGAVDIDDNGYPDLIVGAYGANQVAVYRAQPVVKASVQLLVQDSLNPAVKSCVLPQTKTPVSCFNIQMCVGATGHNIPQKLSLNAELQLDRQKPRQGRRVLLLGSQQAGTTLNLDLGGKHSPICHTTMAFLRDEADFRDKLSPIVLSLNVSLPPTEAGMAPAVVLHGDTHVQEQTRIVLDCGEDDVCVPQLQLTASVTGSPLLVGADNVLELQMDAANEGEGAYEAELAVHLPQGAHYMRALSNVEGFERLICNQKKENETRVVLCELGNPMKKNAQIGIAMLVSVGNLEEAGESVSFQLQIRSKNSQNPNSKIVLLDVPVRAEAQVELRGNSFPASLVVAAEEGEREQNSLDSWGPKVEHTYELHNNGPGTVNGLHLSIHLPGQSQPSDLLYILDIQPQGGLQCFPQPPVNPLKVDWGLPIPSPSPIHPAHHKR
Sequence (P08514 891-1039 partner limits assumed): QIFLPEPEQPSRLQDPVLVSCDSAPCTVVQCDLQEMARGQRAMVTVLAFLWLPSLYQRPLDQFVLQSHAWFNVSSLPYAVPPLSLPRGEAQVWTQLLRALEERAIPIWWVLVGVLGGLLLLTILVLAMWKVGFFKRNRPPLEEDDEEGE
Sequence (P05106 27-788): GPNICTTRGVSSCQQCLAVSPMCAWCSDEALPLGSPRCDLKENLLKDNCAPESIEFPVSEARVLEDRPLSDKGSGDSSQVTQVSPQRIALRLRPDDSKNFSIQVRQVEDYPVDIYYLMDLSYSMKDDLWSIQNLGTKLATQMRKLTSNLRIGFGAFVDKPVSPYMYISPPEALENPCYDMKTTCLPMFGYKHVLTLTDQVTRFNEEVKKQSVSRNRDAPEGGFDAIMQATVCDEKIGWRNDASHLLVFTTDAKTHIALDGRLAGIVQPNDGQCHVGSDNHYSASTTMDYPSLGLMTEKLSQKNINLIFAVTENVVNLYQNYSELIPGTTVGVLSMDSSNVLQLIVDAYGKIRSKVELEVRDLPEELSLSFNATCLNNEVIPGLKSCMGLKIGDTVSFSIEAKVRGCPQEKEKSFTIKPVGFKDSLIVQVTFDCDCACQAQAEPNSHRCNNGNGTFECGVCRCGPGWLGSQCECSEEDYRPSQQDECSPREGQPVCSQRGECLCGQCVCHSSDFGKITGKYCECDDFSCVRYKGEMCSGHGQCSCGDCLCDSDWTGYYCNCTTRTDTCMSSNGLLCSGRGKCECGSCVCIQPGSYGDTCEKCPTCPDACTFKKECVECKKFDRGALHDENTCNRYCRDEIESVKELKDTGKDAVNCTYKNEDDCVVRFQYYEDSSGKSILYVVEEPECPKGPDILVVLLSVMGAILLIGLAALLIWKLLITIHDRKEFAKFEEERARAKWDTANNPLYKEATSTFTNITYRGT
measurement-type: IC50 (nM)
Provide only the numeric value, understood in nM.

Reported IC50 ( O=C(O)CC(NC(=O)C1CCN(C(=O)CCCNC2=NCCN2)CC1)c1cccc(F)c1 (centres unmarked) [Compound 32] ) = 3600

Reported IC50 ( O=C(O)CC(NC(=O)C1CCN(C(=O)CCONC2=NCCN2)CC1)c1ccc2c(c1)OCO2 (centres unmarked) [Compound 61] ) = 2700

Reported IC50 ( O=C(O)C[C@H](NC(=O)C1CCN(C(=O)CCCNC2=NCCN2)CC1)c1ccc(Cl)nc1 [Compound 3] ) = 130

Reported IC50 ( O=C(N[C@@H](CNC(=O)C1CCN(C(=O)[C@@H]2C=C[C@H](NC3=NCCN3)C2)CC1)C(=O)O)OCc1ccccc1 [Compound 14] ) = 9.2

Reported IC50 ( O=C(O)CC(NC(=O)C1CCN(C(=O)CCCNC2=NCCN2)CC1)c1cc(F)cc(F)c1 (centres unmarked) [Compound 38] ) = 3300

Reported IC50 ( O=C(O)CC(NC(=O)C1CCN(C(=O)CCCNC2=NCCN2)CC1)c1cccnc1 (centres unmarked) [Compound 25] ) = 2900

Reported IC50 ( O=C(O)CC(NC(=O)C1CCN(C(=O)OCCNC2=NCCN2)CC1)c1cc(F)cc(F)c1 (centres unmarked) [Compound 35] ) = 1600

Reported IC50 ( O=C(O)CC(NC(=O)C1CCN(C(=O)CCCNC2=NCCN2)CC1)c1ccc(F)c(F)c1 (centres unmarked) [Compound 43] ) = 1300

Hey, just so you know, these numbers are from patent US7718673B2.
